# maps each entry to its growth
- Test system: UACC-257 melanoma
- assaySummary: NCI-60 one-dose screen, 48 h (100 = growth as untreated, 0 = no growth, -100 = all killed)
- conditionLabel: 10 µM
- Procedure: Cells are grown in 96 well plates and exposed to the test compound for 48 hours. Compounds are tested at a single concentration, which is 10^-5 M for most compounds. The reported endpoint is percent growth (GI% or GIPRCNT), where numbers from 0 - 100% represent growth inhibition, and numbers from -100% - 0 represent cell death. For example, a value of 40 represents 60% growth inhibition. A value of 0 means no net growth occurred over the course of the experiment. […]
This is part of a sample that, as a whole, favours compounds with a hit. Of some 83,000 tested, about 20% had one in any assay.

compound | testedTarget | measurementUnit | growth
CC(=O)Nc1c2sscc-2n(C)c1=O | UACC-257 melanoma | % | -44.5
O=C1CCC(=O)N1SC(Cl)(Cl)Cl | UACC-257 melanoma | % | 110
Cc1cc(C(C)(C)c2ccc(O)c(C)c2)ccc1O | UACC-257 melanoma | % | 81.7
O=[N+]([O-])c1cc[n+]([O-])c2ccccc12 | UACC-257 melanoma | % | -47.1
S=C=NCCc1ccccc1 | UACC-257 melanoma | % | 88.5
CS(=N)(=O)CCC(N)C(=O)O (stereo not drawn) | UACC-257 melanoma | % | 105
COc1cc2c(cc1OC)C13CCN4CC5=CCOC6CC(=O)N2C1C6C5CC43 (stereo not drawn) | UACC-257 melanoma | % | 104
Cc1cc(C)c(C[N+](C)(C)C)c(C)c1C | UACC-257 melanoma | % | 16.9
CC(C)C1(NC(=O)C2CC3c4cccc5[nH]cc(c45)CC3N(C)C2)OC2(O)C3CCCN3C(=O)C(Cc3ccccc3)N2C1=O (stereo not drawn) | UACC-257 melanoma | % | 93.7
CCOP(=O)(OCC)/C(C#N)=C/c1ccc(Br)cc1 | UACC-257 melanoma | % | 93.7
O=[N+]([O-])c1ccc(Br)c([N+](=O)[O-])c1 | UACC-257 melanoma | % | 74.3
O=C1C=Cc2ccccc2C1=O | UACC-257 melanoma | % | 75.9
O=[P+](O)c1ccccc1 | UACC-257 melanoma | % | 101

* * *

- Test system: NCI-H23 lung
- assaySummary: NCI-60 one-dose screen, 48 h (100 = growth as untreated, 0 = no growth, -100 = all killed)
- conditionLabel: 10 µM
About 83,000 compounds went through this panel and 20% of them were active in at least one assay; those are over-represented in the sample as a whole.
Please mark TRUE if the recorded growth is equal to or greater than 30%, and FALSE if it falls below.

compound | label
CC(Cc1ccc2c(c1)OCO2)NN (centres undefined) | TRUE
COc1ccc2c(ccc3oc([N+](=O)[O-])cc32)c1 | FALSE
O=C1CCC(=O)N1SC(Cl)(Cl)Cl | TRUE
[O-][n+]1ccccc1S | TRUE
COc1ccc(/C=C(\C)[N+](=O)[O-])cc1OC | TRUE
O=[N+]([O-])/C=C/c1ccc(Cl)cc1[N+](=O)[O-] | TRUE
CCOP(=O)(OCC)C(O)c1ccccc1Cl (centres undefined) | TRUE
COc1cc(/C=C/[N+](=O)[O-])cc(Br)c1OC | FALSE
O=[N+]([O-])c1ccc(Br)c([N+](=O)[O-])c1 | TRUE
CC[C@@H](C)[C@@H]1NC(=O)C(NC(=O)C(CC(C)C)N(C)C(=O)C2CCCN2C(=O)C(C)O)C(C)OC(=O)C(Cc2ccc(OC)cc2)N(C)C(=O)C2CCCN2C(=O)C(CC(C)C)NC(=O)C(C)C(=O)C(C(C)C)OC(=O)C[C@H]1O (some centres undefined) | FALSE
O=C(CCl)Nc1ccc(Cl)cc1 | FALSE
[Cl][Hg][c]1ccc2ccccc2c1 | FALSE
O=[N+]([O-])/C=C\c1ccc2c(c1)OCO2 | TRUE
CC[C@@]1(O)C[C@H](OC2CC(N(C)C)C(O)C(C)O2)c2c(cc3c(c2O)C(=O)c2c(O)ccc(O)c2C3=O)[C@H]1C(=O)OC (some centres undefined) | FALSE
NNc1ccccc1 | TRUE
COc1ccccc1[As]=[As]c1ccccc1OC (centres undefined) | FALSE
COS(=O)(=O)c1ccccc1 | TRUE
COC12C(COC(N)=O)C3=C(C(=O)C(C)=C(N)C3=O)N1CC1C2N1C (centres undefined) | FALSE
CC12OOC(c3ccccc31)c1c2ccc2ccccc12 (centres undefined) | TRUE
NC(=O)c1cc([N+](=O)[O-])c(Cl)c([N+](=O)[O-])c1Cl | FALSE
C#CC1(O)CCC(C(C)(C)C)CC1 (centres undefined) | TRUE
CCOP(=O)(OCC)/C(C#N)=C/c1ccc(Br)cc1 | TRUE
C=C1C(=O)O[C@@H]2C[C@@H](C)[C@@H]3C=CC(=O)[C@@]3(C)[C@@H](O)[C@H]12 | FALSE
CC(C)C1(NC(=O)C2CC3c4cccc5[nH]cc(c45)CC3N(C)C2)OC2(O)C3CCCN3C(=O)C(Cc3ccccc3)N2C1=O (centres undefined) | TRUE
